All figures here come from paper PMC7498356.

Target: T1, TDRD5 LOTUS domain 3 (L3) (Mus musculus, UniProt Q5VCS6 291-365)
T1 sequence: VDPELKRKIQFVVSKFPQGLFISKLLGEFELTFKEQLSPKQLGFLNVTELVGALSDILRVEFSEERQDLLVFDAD
Experiment: pull-down
readout kind: binding result

binder="CACACACACACACACACACACACACACACA (ssRNA) [Poly(CA)]" readout_kind="binding result" measured_result="no binding"
binder="UUACCGUUACCGUUACCGUUACCG (ssRNA) [TERRA G4 mut RNA]" readout_kind="binding result" measured_result="no binding"
binder="GAGAGAGAGAGAGAGAGAGAGAGAGAGAGA (ssRNA) [Poly(GA)]" readout_kind="binding result" measured_result="no binding"
